Biological target: T1, P7A
T1 chain: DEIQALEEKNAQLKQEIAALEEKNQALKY
Assay: two-hybrid library CCNG1;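 also: natural log of median RNA to DNA barcode read ratio; higher means stronger binding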
ASSAY METRIC: interaction score

Consider the worked cases shown below.
- DENAALEEKIAQLKQKNAALKEEIQALEY [P5A]: -1.31
- DENQALEQEIAQLEQEIAALEQKNAQLKY [P11A]: -1.77
- DEIQQLEEEIAQLEQKNAALKEKNQALKY [P3A]: -0.23

[1] DKIAQLKEKNAALKEKNQQLKEKIQALKY [P2A]
[2] DEIQALEEENAQLEQENAALEEEIAQLEY [P1A]
Exam item: # compare interaction score for 1 vs 2 ; return the one with the smaller value Label of pick, please.
Marked response: 1
